- Test system: MDA-MB-436 (Breast Carcinoma)
- Assay info: combination Emax (second highest fraction inhibited in the dose matrix, 72 h); higher = more inhibition; extreme values may be limits of the assay
Metric: combination Emax
Reply with just the number.

Query combination Emax for NC1(C(=O)N[C@@H](CCO)c2ccc(Cl)cc2)CCN(c2ncnc3[nH]ccc23)CC1 [Capivasertib] + CCN(CCO)CCCOc1ccc2c(Nc3cc(CC(=O)Nc4cccc(F)c4)[nH]n3)ncnc2c1 [AZD2811] (first compound max 10 µM, 7x7, partner max 1 µM) 0.264

Query combination Emax for C[C@@H]1COCCN1c1cc(C2([S@](C)(=N)=O)CC2)nc(-c2ccnc3[nH]ccc23)n1 [AZD6738] + O=C(c1cc(Cc2n[nH]c(=O)c3ccccc23)ccc1F)N1CCN(C(=O)C2CC2)CC1 [Olaparib] (first compound max 10 µM, 7x7, partner max 10 µM) 0.349

---

- System: huH-1 (Hepatocellular Carcinoma)
- Assay info: combination Emax (second highest fraction inhibited in the dose matrix, 72 h); higher = more inhibition; extreme values may be limits of the assay
Would you kindly list combination Emax for each of these molecules?
Reply with just the number.

Query combination Emax for CN(C)CCCOc1ccc(-c2ccc3ncc4c(c3c2)n(C2CCOCC2)c(=O)n4C)cn1 [AZD0156] + C=CCn1c(=O)c2cnc(Nc3ccc(N4CCN(C)CC4)cc3)nc2n1-c1cccc(C(C)(C)O)n1 [AZD1775] (first compound max 1 µM, partner max 1 µM) 0.592

Query combination Emax for Cc1c2c(nn1C)CSCc1cc(n(C)n1)CSc1cc(c3ccccc3c1)OCCCc1c(C(=O)O)n(C)c3c-2c(Cl)ccc13 [AZD5991] + CC1(C)CCC(CN2CCN(c3ccc(C(=O)NS(=O)(=O)c4ccc(NCC5CCOCC5)c([N+](=O)[O-])c4)c(Oc4cnc5[nH]ccc5c4)c3)CC2)=C(c2ccc(Cl)cc2)C1 [Venetoclax] (first compound max 1 µM, 7x7, partner max 1 µM) 0.162

Query combination Emax for Cc1cc2ncnn2cc1Nc1ncc2c(n1)n(C1CCOCC1)c(=O)n2C [AZD7648] + C=CCn1c(=O)c2cnc(Nc3ccc(N4CCN(C)CC4)cc3)nc2n1-c1cccc(C(C)(C)O)n1 [AZD1775] (first compound max 10 µM, partner max 1 µM) 0.746

Query combination Emax for COc1cc2ncnc(Nc3ccc(F)c(Cl)c3)c2cc1OCCCN1CCOCC1 [Gefitinib] + CC(C)n1c(=O)n(C)c2cnc3cc(F)c(-c4ccc(OCCCN5CCCCC5)nc4)cc3c21 [AZD1390] (first compound max 10 µM, 7x7, partner max 0.3 µM) 0.134

Query combination Emax for COc1nnc2ccc(N3CCC(c4ccc(OCCN5CCN(C)C(=O)[C@H]5C)cc4)CC3)nn12 [AZD5153] + C=CCn1c(=O)c2cnc(Nc3ccc(N4CCN(C)CC4)cc3)nc2n1-c1cccc(C(C)(C)O)n1 [AZD1775] (first compound max 1 µM, partner max 1 µM) 0.558

Query combination Emax for C=CCn1c(=O)c2cnc(Nc3ccc(N4CCN(C)CC4)cc3)nc2n1-c1cccc(C(C)(C)O)n1 [AZD1775] + C1CN(CCC1(C(=O)N[C@@H](CCO)C2=CC=C(C=C2)Cl)N)C3=NC=NC4=C3C=CN4 [Capivasertib] (first compound max 3 µM, partner max 3 µM) 0.666

Query combination Emax for CC1(C)CCC(CN2CCN(c3ccc(C(=O)NS(=O)(=O)c4ccc(NCC5CCOCC5)c([N+](=O)[O-])c4)c(Oc4cnc5[nH]ccc5c4)c3)CC2)=C(c2ccc(Cl)cc2)C1 [Venetoclax] + Cc1cc2ncnn2cc1Nc1ncc2c(n1)n(C1CCOCC1)c(=O)n2C [AZD7648] (first compound max 1 µM, 7x7, partner max 10 µM) 0.162

Query combination Emax for CC(=O)c1c(C)c2cnc(Nc3ccc(N4CCNCC4)cn3)nc2n(C2CCCC2)c1=O [Palbociclib] + CC1(C)CCC(CN2CCN(c3ccc(C(=O)NS(=O)(=O)c4ccc(NCC5CCOCC5)c([N+](=O)[O-])c4)c(Oc4cnc5[nH]ccc5c4)c3)CC2)=C(c2ccc(Cl)cc2)C1 [Venetoclax] (first compound max 10 µM, 7x7, partner max 1 µM) 0.119

Query combination Emax for CN(C)CCCOc1ccc(-c2ccc3ncc4c(c3c2)n(C2CCOCC2)c(=O)n4C)cn1 [AZD0156] + O=C(c1cc(Cc2n[nH]c(=O)c3ccccc23)ccc1F)N1CCN(C(=O)C2CC2)CC1 [Olaparib] (first compound max 3 µM, partner max 3 µM) 0.174

Query combination Emax for CCc1c2c(nc3ccc(O)cc13)-c1cc3c(c(=O)n1C2)COC(=O)[C@]3(O)CC [SN-38] + O=C(c1cc(Cc2n[nH]c(=O)c3ccccc23)ccc1F)N1CCN(C(=O)C2CC2)CC1 [Olaparib] (first compound max 0.3 µM, 7x7, partner max 10 µM) 0.794

Query combination Emax for CC1(C)CCC(CN2CCN(c3ccc(C(=O)NS(=O)(=O)c4ccc(NCC5CCOCC5)c([N+](=O)[O-])c4)c(Oc4cnc5[nH]ccc5c4)c3)CC2)=C(c2ccc(Cl)cc2)C1 [Venetoclax] + C1CN(CCC1(C(=O)N[C@@H](CCO)C2=CC=C(C=C2)Cl)N)C3=NC=NC4=C3C=CN4 [Capivasertib] (first compound max 1 µM, 7x7, partner max 3 µM) 0.2

Query combination Emax for Cc1c2c(nn1C)CSCc1cc(n(C)n1)CSc1cc(c3ccccc3c1)OCCCc1c(C(=O)O)n(C)c3c-2c(Cl)ccc13 [AZD5991] + Cn1cnc2c(F)c(Nc3ccc(Br)cc3Cl)c(C(=O)NOCCO)cc21 [Selumetinib] (first compound max 1 µM, 7x7, partner max 3 µM) 0.152

Query combination Emax for C[C@@H](c1ccc2nccn2c1)n1nnc2ncc(-c3cnn(C)c3)nc21 [Savolitinib] + Cc1c2c(nn1C)CSCc1cc(n(C)n1)CSc1cc(c3ccccc3c1)OCCCc1c(C(=O)O)n(C)c3c-2c(Cl)ccc13 [AZD5991] (first compound max 1 µM, 7x7, partner max 1 µM) 0.16

---

- Test system: EW-16 (Ewing's Sarcoma)
- Assay info: Bliss excess, mean over the matrix (fraction); higher = more synergy
Would you kindly list Bliss excess for each of these compounds?
Reply with just the number.

Please look at COc1cccc(OCCCN)c1-c1cc(Nc2cnc(C#N)cn2)n[nH]1 [Prexasertib] + CN(C)CCCOc1ccc(-c2ccc3ncc4c(c3c2)n(C2CCOCC2)c(=O)n4C)cn1 [AZD0156] (first compound max 1 µM, 7x7, partner max 1 µM) and tell me its recorded Bliss excess on EW-16 (Ewing's Sarcoma). 0.023

Please look at CN(CCO)CC[C@H](CSc1ccccc1)Nc1ccc(S(=O)(=O)NC(=O)c2ccc(N3CCC([C@@H](O)c4ccccc4-c4ccc(Cl)cc4)CC3)cc2)cc1S(=O)(=O)C(F)(F)F [AZD4320] + Cn1cnc2c(F)c(Nc3ccc(Br)cc3Cl)c(C(=O)NOCCO)cc21 [Selumetinib] (first compound max 1 µM, 7x7, partner max 3 µM) and tell me its recorded Bliss excess on EW-16 (Ewing's Sarcoma). 0.076

---

Would you kindly list Bliss excess for each of these molecules?
- Test system: CGTH-W-1 (Thyroid Gland Carcinoma)
- Assay info: Bliss excess, mean over the matrix (fraction); higher = more synergy
Reply with just the number.

Query Bliss excess for CC1(C)CCC(CN2CCN(c3ccc(C(=O)NS(=O)(=O)c4ccc(NCC5CCOCC5)c([N+](=O)[O-])c4)c(Oc4cnc5[nH]ccc5c4)c3)CC2)=C(c2ccc(Cl)cc2)C1 [Venetoclax] + C=CCn1c(=O)c2cnc(Nc3ccc(N4CCN(C)CC4)cc3)nc2n1-c1cccc(C(C)(C)O)n1 [AZD1775] (first compound max 1 µM, partner max 1 µM) -0.0114

Query Bliss excess for C[C@@H](Nc1cc(F)cc(F)c1)c1cc(C(=O)N(C)C)cc2c(=O)cc(N3CCOCC3)oc12 [AZD8186] + CC(=O)c1c(C)c2cnc(Nc3ccc(N4CCNCC4)cn3)nc2n(C2CCCC2)c1=O [Palbociclib] (first compound max 10 µM, 7x7, partner max 10 µM) 0.0397

Query Bliss excess for COc1nnc2ccc(N3CCC(c4ccc(OCCN5CCN(C)C(=O)[C@H]5C)cc4)CC3)nn12 [AZD5153] + C=CCn1c(=O)c2cnc(Nc3ccc(N4CCN(C)CC4)cc3)nc2n1-c1cccc(C(C)(C)O)n1 [AZD1775] (first compound max 1 µM, partner max 1 µM) 0.0137

Query Bliss excess for Cc1c2c(nn1C)CSCc1cc(n(C)n1)CSc1cc(c3ccccc3c1)OCCCc1c(C(=O)O)n(C)c3c-2c(Cl)ccc13 [AZD5991] + C[C@@H]1COCCN1C2=NC(=NC(=C2)C3(CC3)[S@](=N)(=O)C)C4=C5C=CNC5=NC=C4 [AZD6738] (first compound max 1 µM, 7x7, partner max 10 µM) 0.0117

Query Bliss excess for CCN(CCO)CCCOc1ccc2c(Nc3cc(CC(=O)Nc4cccc(F)c4)[nH]n3)ncnc2c1 [AZD2811] + C[C@@H]1COCCN1C2=NC(=NC(=C2)C3(CC3)[S@](=N)(=O)C)C4=C5C=CNC5=NC=C4 [AZD6738] (first compound max 1 µM, 7x7, partner max 10 µM) -0.0461

Query Bliss excess for Cc1c2c(nn1C)CSCc1cc(n(C)n1)CSc1cc(c3ccccc3c1)OCCCc1c(C(=O)O)n(C)c3c-2c(Cl)ccc13 [AZD5991] + C=CCn1c(=O)c2cnc(Nc3ccc(N4CCN(C)CC4)cc3)nc2n1-c1cccc(C(C)(C)O)n1 [AZD1775] (first compound max 1 µM, partner max 1 µM) 0.005

Query Bliss excess for COc1nnc2ccc(N3CCC(c4ccc(OCCN5CCN(C)C(=O)[C@H]5C)cc4)CC3)nn12 [AZD5153] + C[C@@H]1COCCN1C2=NC(=NC(=C2)C3(CC3)[S@](=N)(=O)C)C4=C5C=CNC5=NC=C4 [AZD6738] (first compound max 1 µM, 7x7, partner max 10 µM) 0.0604

Query Bliss excess for CN(CCO)CC[C@H](CSc1ccccc1)Nc1ccc(S(=O)(=O)NC(=O)c2ccc(N3CCC([C@@H](O)c4ccccc4-c4ccc(Cl)cc4)CC3)cc2)cc1S(=O)(=O)C(F)(F)F [AZD4320] + CC(=O)O[C@H]1C(=O)[C@@]2(C)[C@H]([C@H](OC(=O)c3ccccc3)[C@]3(O)C[C@H](OC(=O)[C@H](O)[C@@H](NC(=O)c4ccccc4)c4ccccc4)C(C)=C1C3(C)C)[C@]1(OC(C)=O)CO[C@@H]1C[C@@H]2O [Paclitaxel] (first compound max 1 µM, 7x7, partner max 3 µM) 0.277

Query Bliss excess for COc1cccc(OCCCN)c1-c1cc(Nc2cnc(C#N)cn2)n[nH]1 [Prexasertib] + C[C@@H]1COCCN1C2=NC(=NC(=C2)C3(CC3)[S@](=N)(=O)C)C4=C5C=CNC5=NC=C4 [AZD6738] (first compound max 1 µM, 7x7, partner max 10 µM) -0.0348

Query Bliss excess for COc1nnc2ccc(N3CCC(c4ccc(OCCN5CCN(C)C(=O)[C@H]5C)cc4)CC3)nn12 [AZD5153] + CCN(CCO)CCCOc1ccc2c(Nc3cc(CC(=O)Nc4cccc(F)c4)[nH]n3)ncnc2c1 [AZD2811] (first compound max 1 µM, 7x7, partner max 1 µM) 0.0228

Query Bliss excess for Cn1cnc2c(F)c(Nc3ccc(Br)cc3Cl)c(C(=O)NOCCO)cc21 [Selumetinib] + C=CCn1c(=O)c2cnc(Nc3ccc(N4CCN(C)CC4)cc3)nc2n1-c1cccc(C(C)(C)O)n1 [AZD1775] (first compound max 10 µM, partner max 1 µM) -0.0427

Query Bliss excess for CC1(C)CCC(CN2CCN(c3ccc(C(=O)NS(=O)(=O)c4ccc(NCC5CCOCC5)c([N+](=O)[O-])c4)c(Oc4cnc5[nH]ccc5c4)c3)CC2)=C(c2ccc(Cl)cc2)C1 [Venetoclax] + CS(=O)(=O)CCNCc1ccc(-c2ccc3ncnc(Nc4ccc(OCc5cccc(F)c5)c(Cl)c4)c3c2)o1 [Lapatinib] (first compound max 1 µM, 7x7, partner max 10 µM) -0.0396

Query Bliss excess for Cn1cnc2c(F)c(Nc3ccc(Br)cc3Cl)c(C(=O)NOCCO)cc21 [Selumetinib] + CCN(CCO)CCCOc1ccc2c(Nc3cc(CC(=O)Nc4cccc(F)c4)[nH]n3)ncnc2c1 [AZD2811] (first compound max 10 µM, 7x7, partner max 1 µM) -0.0329
